# Ki against Orexin/Hypocretin receptor type 1 (Homo sapiens), merged from multiple literature sources
# Sequence (O43613 whole entry): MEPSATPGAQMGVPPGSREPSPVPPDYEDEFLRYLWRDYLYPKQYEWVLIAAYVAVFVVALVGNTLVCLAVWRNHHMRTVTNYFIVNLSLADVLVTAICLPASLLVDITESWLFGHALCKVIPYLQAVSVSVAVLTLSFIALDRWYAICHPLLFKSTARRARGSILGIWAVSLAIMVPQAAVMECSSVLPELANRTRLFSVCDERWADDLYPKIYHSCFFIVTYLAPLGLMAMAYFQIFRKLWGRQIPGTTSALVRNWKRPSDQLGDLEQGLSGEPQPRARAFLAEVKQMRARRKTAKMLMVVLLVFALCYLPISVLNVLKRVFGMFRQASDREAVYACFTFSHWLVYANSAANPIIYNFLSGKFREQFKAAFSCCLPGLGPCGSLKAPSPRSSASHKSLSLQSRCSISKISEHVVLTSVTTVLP
PROPERTY MEASURED: Ki (nM)

Some solved cases for reference:
Q: Suppose we examine the molecule `CC1(C)OC[C@H](NC(=O)Nc2ccccc2-c2cccs2)[C@H](c2ccccc2)O1` ; what Ki value has been reported?
Ans: 1000

Q: Suppose we examine the molecule `Cc1ccc(-n2nccn2)c(C(=O)N2C[C@H](C#Cc3ccnc(CO)c3)CC[C@H]2C)c1` ; what Ki value has been reported?
Ans: 75

Q: Suppose we examine the molecule `Cc1ccc(-n2nccn2)c(C(=O)N2C[C@H](C#Cc3cc(CO)ccn3)CC[C@H]2C)c1` ; what Ki value has been reported?
Ans: 76

1 = Cc1ccc(-n2nccn2)c(C(=O)N2C[C@H](C#Cc3cnccc3O)CC[C@H]2C)c1
2 = O=C(Nc1ccccc1)[C@@H]1CCCN1C(=O)CSc1nc2ccccc2[nH]1
3 = C[C@@H]1CC[C@@H](Oc2cc(S(C)(=O)=O)ccn2)CN1C(=O)c1ccccc1-n1nccn1
Q: Sort low-to-high on Ki, please. A complete answer lists every label in the requested sequence.
Ans: 3, 1, 2
